# Lookup of reported cytotoxicity at 10 µM keyed by entry
Experiment: Toxicity liver stage against HepG2, at 10uM
Format: cell-based
Design: test concentration 10 uM, cell line HepG2-A16-CD81EGFP
Conditions: human, HepG2-A16-CD81EGFP cells; read-out: INHIBITION
# value in %; strip the unit string

[
  {
    "Compound": "Cc1csc(N2CCN(CCc3ccccn3)CC2C)n1 (stereo unspecified)",
    "Result value": -8.81
  },
  {
    "Compound": "Cc1cc(CN2CCC=C(CN(C)C(=O)c3ccco3)C2)no1",
    "Result value": 6.65
  },
  {
    "Compound": "O=C(Nc1cc(F)ccc1OCC1CCCO1)NC1CC1 (stereo unspecified)",
    "Result value": 0.043
  }
]

Consider the compound CS(=O)(=O)NC(c1ccccc1)c1ccc2c(c1)CCCO2 (stereo unspecified) . State its measured cytotoxicity at 10 µM.
0.682

Consider the compound `COc1ccc(C2(C(=O)N3C[C@@H](C(=O)O)[C@H](C(C)C)C3)CC2)cc1` . State its measured cytotoxicity at 10 µM.
-8.36

Consider the compound `Cc1nc(CN2CCN(C(=O)c3ccn(C)c(=O)c3)CC2)cs1` . State its measured cytotoxicity at 10 µM.
1.73

###

# Lookup of reported cytotoxicity at 10 µM keyed by entry
Assay: Toxicity liver stage against HepG2, at 10uM
Type: cell-based
Set-up: test concentration 10 uM, cell line HepG2-A16-CD81EGFP
Conditions: human, HepG2-A16-CD81EGFP cells; read-out: INHIBITION
# value in %; strip the unit string

[
  {
    "Molecule": "c1cncc(-c2ncnc3c2CCN(Cc2ccsc2)CC3)c1",
    "Result value": 8.74
  },
  {
    "Molecule": "O=C(NCCCNc1ccc(C(F)(F)F)cn1)c1ccc(F)cc1Br",
    "Result value": 13.1
  },
  {
    "Molecule": "CN1CCN(c2cccc(Cl)c2CNCCS(C)(=O)=O)CC1",
    "Result value": -0.641
  },
  {
    "Molecule": "COc1ccccc1N1CCN(C(=O)Cn2nc(C)cc2C)CC1(C)C",
    "Result value": 9.62
  },
  {
    "Molecule": "CC(=O)NC1CCCN(Cc2ccc(-n3ccnc3)cc2)C1 (stereo unspecified)",
    "Result value": -57.4
  },
  {
    "Molecule": "CCOCc1cncc2c1CCN(S(=O)(=O)c1cccc(C)c1)C2",
    "Result value": 13.6
  }
]

Consider the molecule CC(=O)NCCC1CCCCN1S(=O)(=O)c1cccc(C#N)c1 (stereo unspecified) . State its measured cytotoxicity at 10 µM.
-10.8

Consider the molecule `COc1ccc(CNC(=O)C2=NN(c3ccc(C)cc3)C(=O)CN2)cc1` . State its measured cytotoxicity at 10 µM.
17.5

Consider the molecule `CCNC(=O)CCc1c(C)nc2cc(O)nn2c1C` . State its measured cytotoxicity at 10 µM.
-12.6

Consider the molecule Cc1ncsc1C(=O)N1CCCC(CO)(CC2CC2)C1 (stereo unspecified) . State its measured cytotoxicity at 10 µM.
-1.5

Consider the molecule CCc1nccn1C1CCCN(C(=O)c2ccoc2C)C1 (stereo unspecified) . State its measured cytotoxicity at 10 µM.
-28

Consider the molecule `COc1cnc(N2C[C@@H](CN3CCOCC3)C[C@H](CO)C2)nc1` . State its measured cytotoxicity at 10 µM.
-6.16

Consider the molecule `CNC(=O)CC1CCN(C(=O)NCC2(c3ccccc3F)CC2)CC1` . State its measured cytotoxicity at 10 µM.
4.27

Consider the molecule `CN1CCC2(CCC1=O)CCN(C(=O)Cc1ccc(O)c(F)c1)CC2` . State its measured cytotoxicity at 10 µM.
-8.99

Consider the molecule `Cn1cccc1C(=O)N1CCC2(CC1)CN(c1ccsc1)C(=O)CO2` . State its measured cytotoxicity at 10 µM.
-76.9

Consider the molecule `CCc1cnc(C)nc1NCCSc1nnc(C)n1CC` . State its measured cytotoxicity at 10 µM.
-4.19

Consider the molecule Cc1nc(C)n(CC2CCCN2Cc2cn(-c3ccccc3)nn2)n1 (stereo unspecified) . State its measured cytotoxicity at 10 µM.
3.87

Consider the molecule `Cc1nc2cc(C(=O)N(CCN(C)C)CCN(C)C)ccc2n1C` . State its measured cytotoxicity at 10 µM.
-9.01
